Reported ELISA values for a set of binders
target: T1, BMPR1A-Fc (recombinant protein used in the screen 1 ELISA) (human, UniProt P36894 24-152, limits assumed); assay: ELISA; further: unit not given here
T1 construct: also called human BMPR1A; not shown: Fc
T1 sequence (P36894 24-152 limits assumed): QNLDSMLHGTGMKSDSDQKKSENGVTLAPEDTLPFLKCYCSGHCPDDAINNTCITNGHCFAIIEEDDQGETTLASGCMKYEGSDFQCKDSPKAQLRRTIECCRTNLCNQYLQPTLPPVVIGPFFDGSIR
In your answer, state the number alone without any accompanying words.

{"Binder": "SC91.20 (antibody, V domains shown) VH: QVQLQQPGAEVVRPGASLKLSCKASGYTFTSYWMQWIKQRPGQGLEWIGEIDPSDNYTMYNQKFKGKATLTVDTSSSTAYMQLSSLTSEDSAVYFCARFGFYVDYWGQGTTLTVSS VL: DVVMTQTPLSLPVSLGDQASISCRSSQSLVHSTGNTYLHWYLQKPGQSPNLLIYKVSNRFSGVPDRFSGSGSGTDFTLKISRVEAEDLGVYFCSQSTHVPFTFGSGTKLEIK", "ELISA": 0.116}

Prompt line: Consider the binder SC91.19 (antibody, V domains shown) VH: QIQLVQSGPELKKPGETVKISCKASGYTFTTYGMNWVKQAPGKGLKWMGWINTYSGVPSSANDFKGRFAFSLETSASTAYLQINNLKNEDTATYFCARSELRNWYFDVWGTGTTVTVSS VL: SFVMTQTPKFLLVSAGDRVTITCKASQSVGNDVAWYQQKPGQSPKLLIYYASNRYTGVPDRFTGSGYGTDFTFTISTVQAEDLAVYFCQQDYSSPFTFGSGTKLEMK . State its measured ELISA.
Response line: 0.121

Prompt line: Consider the binder SC91.3 (murine anti-BMPR1B antibody) (antibody, V domains shown, Murine hybridoma antibody) VH: QVQLQQPGAELVKPGASVKLSCKASGYTFTSYWMQWVKQRPGQGLEWIGEIDPSDSYTLYNQKFKGKATLTVDTSSSTAYMQLSSLTSEDSAVYFCARFGYYIEYWGQGTTLTVSS VL: DVVMTQTPLSLPVSLGDQASISCRSSQSLVHSTGNTYLHWYLQKPGQSPKLLIYKVSNRFSGVPDRFSGSGSGTDFTLKISRVEAEDLGVYFCSQSTHVPFTFGSGTKLEIK . State its measured ELISA.
Response line: 0.035
